Molecular target: human SOS1 (loading of human K-Ras^G12C-GDP with fluorescent GTP-analog) (Homo sapiens)
Test: Biochemical assay 3: K-Ras^G12C activation assay by hSOS1 (HTRF)
Details: read-out: Assay 3 (KRAS-Activation by SOS no GTP) activity expressed as % inhibition at 20 μM; no GTP; at 20 μM
Some compounds, each annotated with its measured inhibition at 20 µM.
Reply numerically in %, unit not repeated.

// below: answered compounds
Measured inhibition at 20 µM of COc1cc2nc(C)nc(NC(C)c3ccc(-c4ccc(CNC(=O)OC(C)(C)C)o4)s3)c2cc1OC (centres unmarked) : 17

So for COCc1ccccc1-c1ccc([C@H](C)Nc2nc(C)nc3cc(OC)c(OC)cc23)s1 (stereo in doubt) , the logged inhibition at 20 µM turned out to be 23

`COc1cc2nc(C)nc(N[C@H](C)c3ccc(S(C)(=O)=O)cc3)c2cc1OC` yielded inhibition at 20 µM of 38

inhibition at 20 µM reported for this compound `Cc1nc(N[C@H](C)c2ccccc2)c2cc(Br)ccc2n1` : 44

The recorded inhibition at 20 µM for entry COc1cc2nc(C)nc(N[C@@H](C)c3ccc(/C=C/c4ccccc4)s3)c2cc1OC (racemic) equals 44

Further cases:
Please fill in: inhibition at 20 µM reported for `Cc1nc(N[C@H](C)c2ccc(F)cc2)c2cc(Br)ccc2n1` = 49

inhibition at 20 µM in this record for COc1cc2nc(C)nc(N[C@@H](C)c3ccc(-c4cc(Cl)cc(Cl)c4)s3)c2cc1OC (stereo in doubt) : 21

Measured inhibition at 20 µM of COc1cc2nc(C)nc(NC(C)c3cccs3)c2cc1OC (centres unmarked) : 48

---

As shown below, each of these compounds has a reported IC50 value.
Biological target: K-Ras^G12C : hSOS1 interaction (Homo sapiens)
Test: Biochemical assay 1: K-Ras^G12C interaction assay with hSOS1 (HTRF)
Type: binding
Conditions: read-out: Assay 1 (KRAS-SOS Interaction) activity expressed as IC50
Reply with just the number (in nM).

Please fill in: IC50 reported for COc1cc2nc(C)nc(N[C@@H](C)c3ccc(-c4cc5ccccc5n4C)s3)c2cc1OC (racemic) = 992

IC50 reported for this compound COc1cc2nc(C)nc(NC(C)c3cc(-c4ccn(CCO)n4)cs3)c2cc1OC (stereo not shown) : 2320

For COc1cc2nc(C)nc(NC(C)c3ccc(-c4ccccc4CN4CC(F)(F)C4)s3)c2cc1OC (stereo not shown) the compound record lists IC50 as 2260

Record summary for COc1cc2nc(C)nc(N[C@@H](C)c3ccc(-c4ccccc4S(C)(=O)=O)s3)c2cc1OC (racemic) : reported IC50 = 1410

// IC50 lookup, compound = CCCNC(=O)c1ccc(-c2ccc([C@H](C)Nc3nc(C)nc4cc(OC)c(OC)cc34)s2)cc1 (racemic) , result: 5630

More entries:
The compound COc1cc2nc(C)nc(N[C@@H](C)c3ccc(-c4ccc(CNC(C)=O)cc4)s3)c2cc1OC (racemic) showed IC50 equal to 5570

Per the records, this compound ( COc1cc2nc(C)nc(NC(C)c3ccc(-c4ccccc4C#N)s3)c2cc1OC (stereo not shown) ) has IC50 equal to 592

---

Target: K-Ras^G12C : hSOS1 interaction (Homo sapiens)
Assay: Biochemical assay 1: K-Ras^G12C interaction assay with hSOS1 (HTRF)
Format: binding
Conditions: read-out: Assay 1 (KRAS-SOS Interaction) activity expressed as IC50
Let's look at some compounds and their measured pIC50.
Entry type: numeric. Quantity: pIC50, the -log10 of concentration in molar units.

COc1cc2nc(C)nc(NC(C)c3ccc(-c4ccc(F)cc4CNC(=O)c4cc[nH]n4)s3)c2cc1OC (centres unmarked) has a reported pIC50 of 5.24

Query COc1cc2nc(C)nc(NC(C)c3csc(-c4cnn(CCN5CCCC5)c4)c3)c2cc1OC (centres unmarked) yields pIC50 of 6.09

The reported value for COc1cc2nc(C)nc(NC(C)c3cccc4sc(C)cc34)c2cc1OC (centres unmarked) in terms of pIC50 is 6.64

Lab note: measured pIC50 of `COc1cc2nc(C)nc(N[C@H](C)c3ccc(C(N)=O)cc3)c2cc1OC` was 5.34

Recorded result, COc1cc2nc(C)nc(NC(C)c3cc4ccccc4o3)c2cc1OC (centres unmarked) , pIC50: 5.07

More entries:
Entry COc1cc2nc(C)nc(N[C@@H](C)c3ccc(-c4cnc5[nH]ccc5c4)s3)c2cc1OC (racemic) , pIC50 reported as 5.83

Form: compound = COc1cc2nc(C)nc(NC(C)c3cccc(Oc4ccccc4)c3)c2cc1OC (centres unmarked) [Example 215] ; pIC50 = 6.04

Data point: `CCCCOc1cc2c(N[C@H](C)c3cccc(-c4cn[nH]c4)c3)nc(C)nc2cc1OC` ; pIC50 = 6.16

---

Target: K-Ras^G12C : hSOS1 interaction (Homo sapiens)
Assay: Biochemical assay 1: K-Ras^G12C interaction assay with hSOS1 (HTRF)
Format: binding
Conditions: read-out: Assay 1 (KRAS-SOS Interaction) activity expressed as IC50
recordedEndpoint: IC50 (µM)
Provide the reading as a plain figure in µM.

Recorded result, CNCc1ccccc1-c1cc(C(C)Nc2nc(C)nc3cc(OC)c(OC)cc23)cs1 (centres unmarked) [Example 263] , IC50: 0.237

Lab note: measured IC50 of COc1cc2nc(C)nc(NC(C)c3ccc(-c4ccccc4CN4CCOCC4)s3)c2cc1OC (centres unmarked) [Example 311] was 0.763

Documented IC50 of COc1cc2nc(C)nc(NC(C)c3ccc(-c4ccccc4CN4CCCC4)s3)c2cc1OC (centres unmarked) [Example 184] : 0.0416

Data point: COc1cc2nc(C)nc(N[C@H](C)c3cccc(-c4csc5ccccc45)c3)c2cc1OC [Example 87] ; IC50 = 4.42

Value of IC50 reported for the compound Cc1nc(N[C@H](C)c2ccc(F)cc2)c2cc(N=S(C)(C)=O)ccc2n1 [Example 32] is 1.07

Looking up COc1cc2nc(C)nc(N[C@H](C)c3cccc(-c4cn[nH]c4)c3)c2cc1OCCC(C)C [Example 351] , I see its IC50 listed as 1.71

In plain terms, COc1cc2nc(C)nc(N[C@H](C)c3cccc(-c4cnn(CCN5CCCC5)c4)c3)c2cc1OC [Example 257] has a documented IC50 of 0.363

IC50 reported for this compound COc1cc2nc(C)nc(NC(C)c3cccc4c3cnn4C)c2cc1OC (centres unmarked) [Example 17] : 0.27

---

Target: human SOS1 (nucleotide exchange of K-Ras^G12C) (Homo sapiens)
Assay: Biochemical assay 2: K-Ras^G12C activation assay by hSOS1 at high GTP concentration (HTRF)
Conditions: high GTP; read-out: Assay 2 (KRAS-Activation by SOS high GTP) activity expressed as IC50
recordedEndpoint: pIC50
Scale: negative log10 of molar concentration, which is what pIC50 denotes.

Known results for molecules:
What the record says about COc1cc2nc(C)nc(NC(C)c3ccc(-c4ccccc4CN4CCC[C@H]4CN(C)C)s3)c2cc1OC (stereo partly shown) [Example 185] : pIC50 is 6.46

Value of measured pIC50 for the entry COc1cc2nc(C)nc(N[C@H](C)c3cccc(-c4ccccc4NS(C)(=O)=O)c3)c2cc1OC [Example 121] : 6.17

So for COc1cc2nc(C)nc(NC(C)c3cccc4sc(C)cc34)c2cc1OC (stereo not shown) [Example 330] , the logged pIC50 turned out to be 6.44

Entry COc1cc2nc(C)nc(N[C@H](C)c3cccc(-c4cc5ccccc5n4C)c3)c2cc1OC [Example 88] , pIC50 reported as 5.59

The measured pIC50 associated with COc1cc2nc(C)nc(NC(C)c3ccc(-c4cccc5sc(C(N)=O)c(N)c45)s3)c2cc1OC (stereo not shown) [Example 278] reads 5.43

Given item COc1cc2nc(C)nc(N[C@H](C)c3cccc(/C=C/C4CC4)c3)c2cc1OC [Example 63] , the value recorded as its pIC50 is 5.74

Further cases:
So for COc1cc2nc(C)nc(NC(C)c3ccc(-c4ccccc4CN4CC5(CNC(=O)N5)C4)s3)c2cc1OC (stereo not shown) [Example 313] , the logged pIC50 turned out to be 6.79

Form field pIC50, entry Cc1nc(N[C@H](C)c2ccccc2)c2cc(Br)ccc2n1 [Example 29] : 4.96

molecule COc1cc2nc(C)nc(N[C@H](C)c3cccc(-c4cccc(NS(C)(=O)=O)c4)c3)c2cc1OC [Example 118] , pIC50 observed: 6.32

Short answer for COc1cc2nc(C)nc(N[C@H](C)c3cccc(-c4cn[nH]c4)c3)c2cc1OCC1CC1 [Example 346] : pIC50 was 6.40
